TARGET SYSTEM: T1, monomeric cynomolgus monkey CSF1R ectodomain protein (cynomolgus monkey, UniProt P07333 20-517 (human entry))
T1 construct: also called monomeric cyno CSF1R; Cyno CSF1R
T1 chain: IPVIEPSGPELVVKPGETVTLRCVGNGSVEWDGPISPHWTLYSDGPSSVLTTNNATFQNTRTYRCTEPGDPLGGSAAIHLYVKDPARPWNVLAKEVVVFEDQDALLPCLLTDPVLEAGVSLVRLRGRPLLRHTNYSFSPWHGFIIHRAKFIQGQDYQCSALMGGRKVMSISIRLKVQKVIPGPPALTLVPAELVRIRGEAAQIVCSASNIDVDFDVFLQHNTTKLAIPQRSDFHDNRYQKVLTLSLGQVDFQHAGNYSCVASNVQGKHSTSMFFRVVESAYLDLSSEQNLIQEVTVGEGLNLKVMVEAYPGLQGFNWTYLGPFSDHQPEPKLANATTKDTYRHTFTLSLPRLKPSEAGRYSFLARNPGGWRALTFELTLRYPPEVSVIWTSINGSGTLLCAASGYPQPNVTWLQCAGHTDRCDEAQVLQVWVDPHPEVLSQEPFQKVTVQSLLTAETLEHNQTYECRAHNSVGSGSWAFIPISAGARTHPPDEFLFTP
ASSAY: SPR Biacore, IgG captured, monomeric CSF1R analyte
MEASUREMENT LABEL: pKd
Keep in mind that pKd stands for -log10 of concentration in molar terms.

| BINDER | pKd |
| --- | --- |
| humanized anti-CSF1R antibody 0301 (hu0301) (antibody, human IgG4, V domains shown, also called mAb-1) VH: QVQLVQSGAEVKKPGSSVKVSCKASGYTFTDNYMIWVRQAPGQGLEWMGDINPYNGGTTFNQKFKGRVTITADKSTSTAYMELSSLRSEDTAVYYCARESPYFSNLYVMDYWGQGTLVTVSS VL: EIVLTQSPATLSLSPGERATLSCKASQSVDYDGDNYMNWYQQKPGQAPRLLIYAASNLESGIPARFSGSGSGTDFTLTISSLEPEDFAVYYCHLSNEDLSTFGGGTKVEIK | 9.18 |

Could you now consider this next binder?
## Task Report pKd for MH24 (antibody, human IgG4, V domains shown, Deimmunized MH5 derivative, human IgG4(S228P)/Ckappa IgG) VH: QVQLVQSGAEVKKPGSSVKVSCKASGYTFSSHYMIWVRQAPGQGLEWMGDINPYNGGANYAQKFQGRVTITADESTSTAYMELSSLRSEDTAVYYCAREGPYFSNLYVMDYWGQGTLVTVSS VL: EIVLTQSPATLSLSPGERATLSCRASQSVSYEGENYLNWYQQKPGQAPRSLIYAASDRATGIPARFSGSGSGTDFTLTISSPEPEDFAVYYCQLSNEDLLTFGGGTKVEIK please.
## Result 9.11
